- targetSystem: glycolate oxidase (produced by Sigma Corporation) derived from spinach (Spinacia oleracea)
- Construct: purchased Sigma Corporation
- Sequence (P05414 1-369): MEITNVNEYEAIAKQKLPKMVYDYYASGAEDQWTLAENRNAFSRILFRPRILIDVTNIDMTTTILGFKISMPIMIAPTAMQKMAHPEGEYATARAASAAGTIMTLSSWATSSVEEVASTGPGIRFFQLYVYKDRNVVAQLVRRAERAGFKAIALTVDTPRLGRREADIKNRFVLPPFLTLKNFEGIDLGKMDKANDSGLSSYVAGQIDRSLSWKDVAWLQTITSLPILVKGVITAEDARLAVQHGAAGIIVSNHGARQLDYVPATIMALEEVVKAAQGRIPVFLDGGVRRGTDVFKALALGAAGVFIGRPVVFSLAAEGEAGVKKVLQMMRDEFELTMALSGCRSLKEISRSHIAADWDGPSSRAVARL
- testMethodNotes: Substrate specificity of glycolate oxidase derived from spinach
- Format: biochemical
- runConditions: Table 1; activity for glycolic acid regarded as 100%
The compounds listed here are annotated with their Relative activity (%), Spinach.
Only the number, expressed in %, is required.

# compound, Relative activity (%), Spinach
measured = [
    ("CC(C)C[C@H](O)C(=O)O [L-2-hydroxyisocaproic acid]", 68),
    ("C[C@H](O)C(=O)O", 81),
    ("CCCC(O)C(=O)O (racemic) [DL-2-hydroxyvaleric acid]", 70),
    ("C[C@@H](O)C(=O)O", 0),
]

Incoming: Relative activity (%), Spinach lookup needed for CCC(O)C(=O)O (racemic) [DL-2-hydroxybutyric acid] , thanks.
Outgoing: 71

Incoming: What does the data say about its Relative activity (%), Spinach? Entry: CC(C)CC(O)C(=O)O (racemic) [DL-2-hydroxyisocaproic acid]
Outgoing: 51

###

Listing: Relative activity (%), Enzyme of this invention of selected molecules
- Tested on: (D)-2-hydroxy-acid oxidase (enzyme of the present invention)
- testMethodNotes: Oxidase reaction activity (H2O2 / 4-AA / TOOS / POD, absorbance at 555 nm), substrate specificity
- Assay type: biochemical, Arthrobacter sp. KNK-GA1 strain
- runConditions: Table 3; Substrate 10 mM
Give your result in % as a bare value.

These recorded examples may help you get a feel for the data.
# molecule, numericResult
records = [
    ("C[C@@H](O)C(=O)O", 82),
    ("CC(C)C[C@H](O)C(=O)O [L-2-hydroxyisocaproic acid]", 0),
    ("C[C@H](O)C(=O)O", 0),
]

Incoming: Hello, I am looking for reported Relative activity (%), Enzyme of this invention with (D)-2-hydroxy-acid oxidase (enzyme of the present invention) for O=C(O)C(O)CO (racemic) . Could you help?
Outgoing: 54

Incoming: Give Relative activity (%), Enzyme of this invention ((D)-2-hydroxy-acid oxidase (enzyme of the present invention)) of the following molecule: CC(C)CC(O)C(=O)O (racemic) [DL-2-hydroxyisocaproic acid]
Outgoing: 10

Incoming: Can you look up Relative activity (%), Enzyme of this invention on (D)-2-hydroxy-acid oxidase (enzyme of the present invention) for CCCCC(O)C(=O)O (racemic) [DL-2-hydroxycaproic acid] ?
Outgoing: 7

Incoming: Entry `O=C(O)CO` , system (D)-2-hydroxy-acid oxidase (enzyme of the present invention): what Relative activity (%), Enzyme of this invention was measured?
Outgoing: 100

Incoming: Under (D)-2-hydroxy-acid oxidase (enzyme of the present invention): Relative activity (%), Enzyme of this invention value of CCCC(O)C(=O)O (racemic) [DL-2-hydroxyvaleric acid] ?
Outgoing: 32

Incoming: Please provide the recorded Relative activity (%), Enzyme of this invention for CCC(O)C(=O)O (racemic) [DL-2-hydroxybutyric acid] , tested on (D)-2-hydroxy-acid oxidase (enzyme of the present invention).
Outgoing: 42

###

- Tested on: (D)-2-hydroxy-acid oxidase (enzyme of the present invention)
- testMethodNotes: Oxidase reaction activity (H2O2 / 4-AA / TOOS / POD, absorbance at 555 nm), substrate specificity
- Assay type: biochemical, Arthrobacter sp. KNK-GA1 strain
- runConditions: Table 1; activity for glycolic acid regarded as 100%
- Method: The reaction activity of oxidase is basically measured by adding 0.1 ml of an enzyme solution to 0.9 ml of a 100 mM phosphate buffer (pH 7) having the composition below, and measuring an increase in absorbance at a wavelength of 555 nm at 30° C. In the present invention, when 1 μmol of H2O2 is produced for 1 minute, the enzyme activity is defined as 1 unit. The enzymatic properties of the enzyme produced in Example 6 were measured. […]
Consider the following molecules and their measured Relative activity (%), Enzyme of this invention readings.
Just the number in %, nothing appended.

Worked cases, answers included:
# molecule, numericResult
data = [
    ("C[C@H](O)C(=O)O", 0),
    ("CC(C)C[C@H](O)C(=O)O [L-2-hydroxyisocaproic acid]", 0),
    ("O=C(O)CO", 100),
    ("C[C@@H](O)C(=O)O", 82),
    ("O=CC(=O)O", 4),
    ("CCCC(O)C(=O)O (racemic) [DL-2-hydroxyvaleric acid]", 32),
    ("CC(C)CC(O)C(=O)O (racemic) [DL-2-hydroxyisocaproic acid]", 10),
    ("CCC(O)C(=O)O (racemic) [DL-2-hydroxybutyric acid]", 42),
]

Alright, here's another molecule for you.
Incoming: Entry CCCCC(O)C(=O)O (racemic) [DL-2-hydroxycaproic acid] : reported Relative activity (%), Enzyme of this invention = ?
Outgoing: 7

###

- Test system: (D)-2-hydroxy-acid oxidase (enzyme of the present invention)
- testMethodNotes: Oxidase reaction activity (H2O2 / 4-AA / TOOS / POD, absorbance at 555 nm), substrate specificity
- Assay type: biochemical, Arthrobacter sp. KNK-GA1 strain
- runConditions: summary of Table 1
reportedProperty: activity of the (D)-2-hydroxy-acid oxidase for the substrate (in words)

# compound, result
data = [
    ("CC(C)C[C@H](O)C(=O)O [L-2-hydroxyisocaproic acid]", "no activity"),
    ("O=C(O)CO [Glycolic acid]", "high activity"),
    ("C[C@@H](O)C(=O)O [D-lactic acid]", "high activity"),
    ("C[C@H](O)C(=O)O [L-lactic acid]", "no activity"),
]

###

- targetSystem: glycolate oxidase (produced by Sigma Corporation) derived from spinach (Spinacia oleracea, UniProt P05414)
- Construct: purchased Sigma Corporation
- testMethodNotes: Substrate specificity of glycolate oxidase derived from spinach
- Format: biochemical
- runConditions: Table 3; Substrate 10 mM
The following compounds are shown together with reported Relative activity (%), Spinach values.
The figure you give is taken to be in %; do not add the unit.

Below, each entry is followed by its recorded Relative activity (%), Spinach result.
# compound, reportedProperty, numericResult
measured = [
    ("CCCCC(O)C(=O)O (racemic) [DL-2-hydroxycaproic acid]", "Relative activity (%), Spinach", 29),
    ("C[C@H](O)C(=O)O", "Relative activity (%), Spinach", 81),
    ("C[C@@H](O)C(=O)O", "Relative activity (%), Spinach", 0),
]

Incoming: Look up Relative activity (%), Spinach for this compound: CCCC(O)C(=O)O (racemic) [DL-2-hydroxyvaleric acid]
Outgoing: 70

Incoming: Quick one: Relative activity (%), Spinach for O=C(O)C(O)CO (racemic) ?
Outgoing: 76

Incoming: Any idea what its Relative activity (%), Spinach is? The compound is `O=C(O)CO`
Outgoing: 100

Incoming: // query Relative activity (%), Spinach value for entry CC(C)CC(O)C(=O)O (racemic) [DL-2-hydroxyisocaproic acid]
Outgoing: 51

Incoming: I would be grateful if you could share the reported Relative activity (%), Spinach for CCC(O)C(=O)O (racemic) [DL-2-hydroxybutyric acid] .
Outgoing: 71

Incoming: Please give the measured Relative activity (%), Spinach for this compound: CC(C)C[C@H](O)C(=O)O [L-2-hydroxyisocaproic acid]
Outgoing: 68

###

- targetSystem: glycolate oxidase (produced by Sigma Corporation) derived from spinach (Spinacia oleracea, UniProt P05414)
- Construct: purchased Sigma Corporation
- Sequence (P05414 1-369): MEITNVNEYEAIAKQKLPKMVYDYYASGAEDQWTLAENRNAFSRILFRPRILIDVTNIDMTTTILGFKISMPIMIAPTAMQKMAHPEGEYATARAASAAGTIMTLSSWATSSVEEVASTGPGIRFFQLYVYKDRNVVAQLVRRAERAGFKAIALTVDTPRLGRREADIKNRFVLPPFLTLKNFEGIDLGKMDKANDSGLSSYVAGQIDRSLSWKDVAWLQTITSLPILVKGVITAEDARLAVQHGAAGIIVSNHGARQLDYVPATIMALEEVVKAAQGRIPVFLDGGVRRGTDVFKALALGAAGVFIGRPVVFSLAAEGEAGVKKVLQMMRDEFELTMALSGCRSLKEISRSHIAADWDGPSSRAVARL
- testMethodNotes: Substrate specificity of glycolate oxidase derived from spinach
- Assay type: biochemical
- runConditions: Table 1; activity for glycolic acid regarded as 100%
Recorded Relative activity (%), Spinach for the following compounds
The figure you give is taken to be in %; do not add the unit.

Answered examples (2):
# compound, Relative activity (%), Spinach
records = [
    ("O=C(O)CO [Glycolic acid]", 100),
    ("O=CC(=O)O [Glyoxylic acid]", 8),
]

Incoming: # query: Relative activity (%), Spinach of entry CCCCC(O)C(=O)O (racemic) [DL-2-hydroxycaproic acid]
Outgoing: 29
